system: APOL1 G1 (Homo sapiens, UniProt O14791, I384M/S342G)
experimentSummary: MultiTox-Fluor Multiplex Cytotoxicity Assay, tet-inducible APOL1 G1 T-REx-HEK293 cells
Type: cell-based
Set-up: expressed in transfected cells; host or cells: T-REx HEK293, clone G1 DC3.25 (pAAVS1-Puro-APOL1 G1)
conditionContext: Multi-Tox Assay; APOL1 variant not given
Recorded Multi-Tox Assay Max Activity (%) for the following compounds

Consider the following illustrative entries.
>>> print(df.to_string())
                                   compound                  recordedendpoint  measured
0  C[C@H]1C[C@@]2(C[C@@H](c3cn(Cc4cnccn4)nn3)N1)OCC(F)(F)c1cc(Cl)sc12 [Compound 317]  Multi-Tox Assay Max Activity (%)     98.0%
1  C[C@H]1C[C@@]2(C[C@@H](c3cn(CCC(N)=O)nn3)N1)OCC(F)(F)c1cc(Cl)sc12 [Compound 328]  Multi-Tox Assay Max Activity (%)    100.0%
2  C[C@H]1C[C@@]2(C[C@@H](c3cn(Cc4cocn4)nn3)N1)OC[C@@H](O)c1cc(Cl)sc12 [Compound 291]  Multi-Tox Assay Max Activity (%)    100.0%

Give measured Multi-Tox Assay Max Activity (%) for C[C@H]1C[C@@]2(C[C@@H](c3cccn4ccnc34)N1)OCCc1cc(Cl)sc12 [Compound 143] (APOL1 G1 (Homo sapiens, UniProt O14791, I384M/S342G)). 98.0%

Give measured Multi-Tox Assay Max Activity (%) for C[C@H]1C[C@@]2(C[C@@H](c3cn(CC(F)F)nn3)N1)OC[C@@H](O)c1cc(Cl)sc12 [Compound 283] (APOL1 G1 (Homo sapiens, UniProt O14791, I384M/S342G)). 101.0%

Give measured Multi-Tox Assay Max Activity (%) for Cc1ccc(Cn2cc([C@@H]3C[C@]4(C[C@H](C)N3)OC[C@@H](O)c3cc(Cl)sc34)nn2)nc1 [Compound 294] (APOL1 G1 (Homo sapiens, UniProt O14791, I384M/S342G)). 100.0%

Give measured Multi-Tox Assay Max Activity (%) for C[C@H]1C[C@@]2(C[C@@H](c3cn(CC(F)F)nn3)N1)OCC(F)(F)c1cc(Cl)sc12 [Compound 324] (APOL1 G1 (Homo sapiens, UniProt O14791, I384M/S342G)). 96.0%

Give measured Multi-Tox Assay Max Activity (%) for COc1ccnc([C@@H]2C[C@]3(C[C@H](C)N2)OCCc2cc(Cl)sc23)n1 (racemic) [Compound 145] (APOL1 G1 (Homo sapiens, UniProt O14791, I384M/S342G)). 97.7%

====

system: APOL1 G1 (Homo sapiens, UniProt O14791, I384M/S342G)
Sequence (O14791 28-398 S342G/I384M): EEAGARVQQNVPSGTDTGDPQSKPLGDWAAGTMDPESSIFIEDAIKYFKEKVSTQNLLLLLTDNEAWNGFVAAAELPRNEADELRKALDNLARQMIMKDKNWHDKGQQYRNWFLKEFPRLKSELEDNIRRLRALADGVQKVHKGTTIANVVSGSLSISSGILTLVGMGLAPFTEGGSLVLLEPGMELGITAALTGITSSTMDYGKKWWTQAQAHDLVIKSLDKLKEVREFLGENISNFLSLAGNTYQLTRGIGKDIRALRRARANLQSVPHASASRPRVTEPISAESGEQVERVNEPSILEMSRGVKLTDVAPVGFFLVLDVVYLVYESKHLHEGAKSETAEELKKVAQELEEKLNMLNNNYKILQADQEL
experimentSummary: MultiTox-Fluor Multiplex Cytotoxicity Assay, tet-inducible APOL1 G1 T-REx-HEK293 cells
Assay type: cell-based
Design: expressed in transfected cells; host or cells: T-REx HEK293, clone G1 DC3.25 (pAAVS1-Puro-APOL1 G1)
conditionContext: HEK293, Multi-Tox Assay; APOL1 variant (G0/G1/G2) of the HEK293 cells not given; read-out: Multi-Tox Assay IC90
recordedEndpoint: IC90

Consider the following illustrative entries.
                                   compound      measured
0  Cc1cc([C@@H]2C[C@]3(C[C@H](C)N2)OCCc2cc(Cl)sc23)on1 (racemic)       < 50 nM
1  C[C@H]1C[C@@]2(C[C@@H](c3ccccc3)N1)OCCc1cc(Cl)sc12 (racemic)       < 50 nM
2  Cc1ncc([C@@H]2C[C@]3(C[C@H](C)N2)OCCc2cc(Cl)sc23)cn1 (racemic)       < 50 nM
3  CC(CO)Cn1cc([C@@H]2C[C@]3(C[C@H](C)N2)OC[C@@H](O)c2cc(Cl)sc23)nn1 (stereo partly shown)  50 to 500 nM
4  CC1CC2(CC(c3cccc(C#N)c3)N1)OCCc1cc(Cl)sc12 (stereo not shown)       < 50 nM

Quickly give me recorded IC90 for C[C@H]1C[C@@]2(C[C@@H](c3cn(C)nn3)N1)OCC(F)(F)c1cc(Cl)sc12 < 50 nM

Quickly give me recorded IC90 for COCCOCCn1cc([C@@H]2C[C@]3(C[C@H](C)N2)OC[C@@H](O)c2cc(Cl)sc23)nn1 50 to 500 nM
